Reference for the values: patent US20190382474A1

Answer each item with its documented Relative KD to Ab7.1.
Molecular target: T1, recombinant human IL-27 (human, UniProt Q14213 21-229; Q8NEV9 29-243)
T1 construct: Bought from R&D Systems (Cat. 2526-IL); also called hIL-27; rhIL-27
T1 sequence 1: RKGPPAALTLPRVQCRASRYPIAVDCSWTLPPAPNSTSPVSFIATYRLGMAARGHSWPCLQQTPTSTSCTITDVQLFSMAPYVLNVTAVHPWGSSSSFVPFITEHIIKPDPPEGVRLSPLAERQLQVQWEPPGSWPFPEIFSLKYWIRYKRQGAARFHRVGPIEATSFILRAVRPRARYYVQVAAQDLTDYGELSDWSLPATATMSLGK
T1 sequence 2: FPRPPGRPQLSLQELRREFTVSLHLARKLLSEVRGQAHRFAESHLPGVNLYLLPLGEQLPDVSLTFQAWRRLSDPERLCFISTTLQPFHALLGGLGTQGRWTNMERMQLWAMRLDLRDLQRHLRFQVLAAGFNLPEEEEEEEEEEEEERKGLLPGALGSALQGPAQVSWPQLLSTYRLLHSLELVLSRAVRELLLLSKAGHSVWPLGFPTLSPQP
Experiment: SPR (Biacore T200), hIL-27 on CM5 chip, single cycle, 1:1 model
Respond using a number only.

State its Relative KD to Ab7.1: Ab7.22 (antibody, human IgG1, kappa, V domains shown, human IgG1/kappa) VH: EVQLVESGGGLVQPGGSLRLSCAASGFTFTSYSMSWVRQAPGKGLEWVSYISYDGGSAYYPDTVKGRFTISRDNSKNTLYLQMNSLRAEDTAVYYCARHGDYDDDDAMDYWGQGTLVTVSS VL: DIQMTQSPSSLSASVGDRVTITCRASENIYSYLAWYQQKPGKAPKLLVYNAETLTEGVPSRFSGSGSGTDFTLTISSLQPEDFATYYCQHHYGTPLTFGQGTKLEIKR
1.5

State its Relative KD to Ab7.1: Ab7.2 (antibody, human IgG1, kappa, V domains shown, human IgG1/kappa) VH: EVKLVESGGGLVQPGGSLKLFCAASGFTFTSYSMSWVRQTPEKRLEWVAYISYDGGSAYYPDTVKGRFSISRDNAKKTLYLQMSSLKSEDTAMYYCARHGDYDDDDAMDYWGQGTSVTVSS VL: DIQMTQSPSSLSASVGDRVTITCRASENIYSYLAWYQQKQGKAPKLLVYNAETLTEGVPSRFSGSGSGTDFTLTISSLQPEDFANYYCQHHYGTPLTFGQGTKLDIKR
1.2

State its Relative KD to Ab7.1: Ab7.13 (antibody, human IgG1, kappa, V domains shown, human IgG1/kappa) VH: EVKLVESGGGLVQPGGSLRLSCAASGFTFTSYSMSWVRQAPGKGLEWVAYISYDGGSAYYPDTVKGRFTISRDNSKKTLYLQMNSLRAEDTAVYYCARHGDYDDDDAMDYWGQGTLVTVSS VL: DIQMTQSPSSLSASVGDRVTITCRASENIYSYLAWYQQKPGKAPKLLVYNAETLTEGVPSRFSGSGSGTDFTLTISSLQPEDFANYYCQHHYGTPLTFGQGTKLEIKR
1.2

State its Relative KD to Ab7.1: Ab7.5 (antibody, human IgG1, kappa, V domains shown, human IgG1/kappa) VH: EVKLVESGGGLVQPGGSLRLSCAASGFTFTSYSMSWVRQAPGKGLEWVAYISYDGGSAYYPDTVKGRFTISRDNSKKTLYLQMSSLKSEDTAMYYCARHGDYDDDDAMDYWGQGTSVTVSS VL: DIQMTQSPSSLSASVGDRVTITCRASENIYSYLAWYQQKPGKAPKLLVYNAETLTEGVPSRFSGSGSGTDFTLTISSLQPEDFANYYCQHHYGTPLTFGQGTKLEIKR
1.2

State its Relative KD to Ab7.1: Ab7.21 (antibody, human IgG1, kappa, V domains shown, human IgG1/kappa) VH: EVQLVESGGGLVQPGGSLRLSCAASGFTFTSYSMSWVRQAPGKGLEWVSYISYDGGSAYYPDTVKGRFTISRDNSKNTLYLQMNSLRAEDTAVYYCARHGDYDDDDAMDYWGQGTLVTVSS VL: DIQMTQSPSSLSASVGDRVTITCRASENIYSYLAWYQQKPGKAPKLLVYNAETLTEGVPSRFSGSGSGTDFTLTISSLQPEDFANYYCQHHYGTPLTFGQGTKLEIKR
1.5

State its Relative KD to Ab7.1: Ab7.3 (antibody, human IgG1, kappa, V domains shown, human IgG1/kappa) VH: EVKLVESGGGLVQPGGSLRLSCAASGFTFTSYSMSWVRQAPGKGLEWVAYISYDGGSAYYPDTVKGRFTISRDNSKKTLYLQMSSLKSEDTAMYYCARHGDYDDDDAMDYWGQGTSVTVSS VL: DIQMTQSPASLSASVGETVTITCRASENIYSYLAWYQQKQGKSPQLLVYNAETLTEGVPSRFSGSGSGTQFSLKINSLQPEDFGNYYCQHHYGTPLTFGAGTKLDLKR
0.9

State its Relative KD to Ab7.1: Ab7.14 (antibody, human IgG1, kappa, V domains shown, human IgG1/kappa) VH: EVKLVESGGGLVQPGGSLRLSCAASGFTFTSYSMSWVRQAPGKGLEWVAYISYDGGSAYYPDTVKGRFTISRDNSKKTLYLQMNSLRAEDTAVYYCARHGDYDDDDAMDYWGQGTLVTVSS VL: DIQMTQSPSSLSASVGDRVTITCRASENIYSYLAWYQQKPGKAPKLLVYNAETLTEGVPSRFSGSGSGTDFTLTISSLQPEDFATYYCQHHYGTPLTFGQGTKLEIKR
1.2

State its Relative KD to Ab7.1: Ab7.16 (antibody, human IgG1, kappa, V domains shown, human IgG1/kappa) VH: EVQLVESGGGLVQPGGSLRLSCAASGFTFTSYSMSWVRQAPGKGLEWVAYISYDGGSAYYPDTVKGRFTISRDNSKNTLYLQMNSLRAEDTAVYYCARHGDYDDDDAMDYWGQGTLVTVSS VL: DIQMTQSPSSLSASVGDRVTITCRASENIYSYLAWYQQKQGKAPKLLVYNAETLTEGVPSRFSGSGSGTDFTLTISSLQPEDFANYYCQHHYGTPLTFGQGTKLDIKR
1.4

State its Relative KD to Ab7.1: Ab7.10 (antibody, human IgG1, kappa, V domains shown, human IgG1/kappa) VH: EVQLVESGGGLVQPGGSLRLSCAASGFTFTSYSMSWVRQAPGKGLEWVAYISYDGGSAYYPDTVKGRFTISRDNSKNTLYLQMSSLKSEDTAMYYCARHGDYDDDDAMDYWGQGTLVTVSS VL: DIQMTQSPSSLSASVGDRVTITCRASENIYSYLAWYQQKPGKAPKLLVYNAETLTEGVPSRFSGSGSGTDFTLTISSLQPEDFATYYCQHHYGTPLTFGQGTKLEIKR
1.4

State its Relative KD to Ab7.1: Ab7.12 (antibody, human IgG1, kappa, V domains shown, human IgG1/kappa) VH: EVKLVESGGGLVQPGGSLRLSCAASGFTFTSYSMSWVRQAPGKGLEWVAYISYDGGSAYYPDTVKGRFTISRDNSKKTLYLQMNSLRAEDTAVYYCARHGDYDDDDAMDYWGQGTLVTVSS VL: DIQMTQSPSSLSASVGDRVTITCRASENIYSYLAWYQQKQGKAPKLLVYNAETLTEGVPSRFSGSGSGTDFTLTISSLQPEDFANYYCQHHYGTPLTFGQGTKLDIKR
1.2

State its Relative KD to Ab7.1: Ab7.8 (antibody, human IgG1, kappa, V domains shown, human IgG1/kappa) VH: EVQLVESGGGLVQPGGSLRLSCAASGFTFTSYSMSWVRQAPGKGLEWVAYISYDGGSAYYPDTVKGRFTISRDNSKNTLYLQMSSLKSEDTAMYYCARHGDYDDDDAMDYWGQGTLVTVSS VL: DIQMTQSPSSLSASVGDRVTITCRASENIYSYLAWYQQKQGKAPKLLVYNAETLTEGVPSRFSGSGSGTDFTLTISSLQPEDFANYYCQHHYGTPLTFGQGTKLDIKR
1.4
